B1: C8orf76 (parent)
chain: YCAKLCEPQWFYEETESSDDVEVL

- Variants of: B1
- Procedure Text: protein stability index of a GFP-peptide fusion (GPS, HEK-293T) (PSI 1-6); higher = more stable;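 further: lentivirally expressed fusions sorted by FACS into six bins by GFP to DsRed ratio, PSI derived from sequencing read proportions per bin multiplied by bin number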
- Experimental Conditions: c terminus: a fixed tail appended
// reported protein stability index for each item listed
Measured Quantity: protein stability index

- Mutant Label: "L5I"
  Measured Quantity: "protein stability index"
  Reported: 1.98
- Mutant Label: "E13D"
  Measured Quantity: "protein stability index"
  Reported: 2.04
- Mutant Label: "D19E"
  Measured Quantity: "protein stability index"
  Reported: 2.35
- Mutant Label: "E22F"
  Measured Quantity: "protein stability index"
  Reported: 1.6
- Mutant Label: "Q9N"
  Measured Quantity: "protein stability index"
  Reported: 2.17
- Mutant Label: "D20P"
  Measured Quantity: "protein stability index"
  Reported: 1.81
- Mutant Label: "V23F"
  Measured Quantity: "protein stability index"
  Reported: 2.45
- Mutant Label: "V23I"
  Measured Quantity: "protein stability index"
  Reported: 2.08
- Mutant Label: "L5P"
  Measured Quantity: "protein stability index"
  Reported: 2.15
- Mutant Label: "K4E"
  Measured Quantity: "protein stability index"
  Reported: 4.61
- Mutant Label: "E16T"
  Measured Quantity: "protein stability index"
  Reported: 2.22
- Mutant Label: "F11Q"
  Measured Quantity: "protein stability index"
  Reported: 3.57
- Mutant Label: "L5N"
  Measured Quantity: "protein stability index"
  Reported: 3.31
- Mutant Label: "A3I"
  Measured Quantity: "protein stability index"
  Reported: 2.51
- Mutant Label: "A3Y"
  Measured Quantity: "protein stability index"
  Reported: 2.83
- Mutant Label: "S18V"
  Measured Quantity: "protein stability index"
  Reported: 2.1
- Mutant Label: "L24N"
  Measured Quantity: "protein stability index"
  Reported: 2.36
- Mutant Label: "K4N"
  Measured Quantity: "protein stability index"
  Reported: 4.3
- Mutant Label: "K4H"
  Measured Quantity: "protein stability index"
  Reported: 2.84
- Mutant Label: "E22V"
  Measured Quantity: "protein stability index"
  Reported: 1.36
- Mutant Label: "L24S"
  Measured Quantity: "protein stability index"
  Reported: 2.66
- Mutant Label: "D20K"
  Measured Quantity: "protein stability index"
  Reported: 2.01
- Mutant Label: "E22K"
  Measured Quantity: "protein stability index"
  Reported: 2.21
- Mutant Label: "W10F"
  Measured Quantity: "protein stability index"
  Reported: 3.22
- Mutant Label: "A3C"
  Measured Quantity: "protein stability index"
  Reported: 2.7
- Mutant Label: "Y12T"
  Measured Quantity: "protein stability index"
  Reported: 1.82
- Mutant Label: "E14P"
  Measured Quantity: "protein stability index"
  Reported: 1.84
- Mutant Label: "E22N"
  Measured Quantity: "protein stability index"
  Reported: 2.14
- Mutant Label: "S18D"
  Measured Quantity: "protein stability index"
  Reported: 2.6
- Mutant Label: "E14C"
  Measured Quantity: "protein stability index"
  Reported: 1.8
- Mutant Label: "E7T"
  Measured Quantity: "protein stability index"
  Reported: 2.5
- Mutant Label: "E13R"
  Measured Quantity: "protein stability index"
  Reported: 1.64
- Mutant Label: "E7K"
  Measured Quantity: "protein stability index"
  Reported: 2.78
- Mutant Label: "E7Q"
  Measured Quantity: "protein stability index"
  Reported: 3.27
- Mutant Label: "E22W"
  Measured Quantity: "protein stability index"
  Reported: 2.28
- Mutant Label: "E14K"
  Measured Quantity: "protein stability index"
  Reported: 1.39
- Mutant Label: "Y1G"
  Measured Quantity: "protein stability index"
  Reported: 4.56
- Mutant Label: "C2F"
  Measured Quantity: "protein stability index"
  Reported: 2.59
- Mutant Label: "E16F"
  Measured Quantity: "protein stability index"
  Reported: 2.19
- Mutant Label: "D20L"
  Measured Quantity: "protein stability index"
  Reported: 1.67
- Mutant Label: "E16W"
  Measured Quantity: "protein stability index"
  Reported: 1.65
- Mutant Label: "E16H"
  Measured Quantity: "protein stability index"
  Reported: 3.15
- Mutant Label: "W10I"
  Measured Quantity: "protein stability index"
  Reported: 3.45
- Mutant Label: "C2H"
  Measured Quantity: "protein stability index"
  Reported: 1.68
- Mutant Label: "D20E"
  Measured Quantity: "protein stability index"
  Reported: 1.92
- Mutant Label: "K4C"
  Measured Quantity: "protein stability index"
  Reported: 2.96
- Mutant Label: "E13A"
  Measured Quantity: "protein stability index"
  Reported: 2.11
- Mutant Label: "Q9R"
  Measured Quantity: "protein stability index"
  Reported: 1.41
- Mutant Label: "D20A"
  Measured Quantity: "protein stability index"
  Reported: 2.27
- Mutant Label: "V21W"
  Measured Quantity: "protein stability index"
  Reported: 2.04
- Mutant Label: "V23A"
  Measured Quantity: "protein stability index"
  Reported: 2.68
- Mutant Label: "Y12V"
  Measured Quantity: "protein stability index"
  Reported: 2.16
- Mutant Label: "P8G"
  Measured Quantity: "protein stability index"
  Reported: 2.56
- Mutant Label: "C6H"
  Measured Quantity: "protein stability index"
  Reported: 2.32
- Mutant Label: "V21Y"
  Measured Quantity: "protein stability index"
  Reported: 2.48
- Mutant Label: "F11M"
  Measured Quantity: "protein stability index"
  Reported: 3.28
- Mutant Label: "V21L"
  Measured Quantity: "protein stability index"
  Reported: 2.07
- Mutant Label: "Q9C"
  Measured Quantity: "protein stability index"
  Reported: 1.93
- Mutant Label: "E16I"
  Measured Quantity: "protein stability index"
  Reported: 2.14
- Mutant Label: "P8C"
  Measured Quantity: "protein stability index"
  Reported: 1.73
- Mutant Label: "E22Y"
  Measured Quantity: "protein stability index"
  Reported: 1.63
- Mutant Label: "E7G"
  Measured Quantity: "protein stability index"
  Reported: 2.43
- Mutant Label: "D19Y"
  Measured Quantity: "protein stability index"
  Reported: 1.76
- Mutant Label: "C2G"
  Measured Quantity: "protein stability index"
  Reported: 3.72
- Mutant Label: "S18M"
  Measured Quantity: "protein stability index"
  Reported: 2.34
- Mutant Label: "W10A"
  Measured Quantity: "protein stability index"
  Reported: 4.04
- Mutant Label: "P8A"
  Measured Quantity: "protein stability index"
  Reported: 2.09
- Mutant Label: "Q9G"
  Measured Quantity: "protein stability index"
  Reported: 2.15
- Mutant Label: "V21P"
  Measured Quantity: "protein stability index"
  Reported: 2.38
- Mutant Label: "Q9H"
  Measured Quantity: "protein stability index"
  Reported: 2.13
- Mutant Label: "D20Q"
  Measured Quantity: "protein stability index"
  Reported: 1.86
- Mutant Label: "D20H"
  Measured Quantity: "protein stability index"
  Reported: 1.91
- Mutant Label: "E7W"
  Measured Quantity: "protein stability index"
  Reported: 1.63
- Mutant Label: "K4Q"
  Measured Quantity: "protein stability index"
  Reported: 3.46
- Mutant Label: "Y12F"
  Measured Quantity: "protein stability index"
  Reported: 2.43
- Mutant Label: "S17L"
  Measured Quantity: "protein stability index"
  Reported: 1.98
- Mutant Label: "P8S"
  Measured Quantity: "protein stability index"
  Reported: 2.62
- Mutant Label: "Y12S"
  Measured Quantity: "protein stability index"
  Reported: 2.52
- Mutant Label: "D20F"
  Measured Quantity: "protein stability index"
  Reported: 2.04
- Mutant Label: "L5V"
  Measured Quantity: "protein stability index"
  Reported: 2.4
- Mutant Label: "L24H"
  Measured Quantity: "protein stability index"
  Reported: 2.15
- Mutant Label: "D19P"
  Measured Quantity: "protein stability index"
  Reported: 1.57
- Mutant Label: "Y1M"
  Measured Quantity: "protein stability index"
  Reported: 4.26
- Mutant Label: "Y12R"
  Measured Quantity: "protein stability index"
  Reported: 2.76
- Mutant Label: "K4W"
  Measured Quantity: "protein stability index"
  Reported: 2.08
- Mutant Label: "D20C"
  Measured Quantity: "protein stability index"
  Reported: 2.49
- Mutant Label: "C2K"
  Measured Quantity: "protein stability index"
  Reported: 4.17
- Mutant Label: "F11N"
  Measured Quantity: "protein stability index"
  Reported: 3.48
